Hello, the source for this data is paper PMC3053384, in case you need it.

experiment: Pediatric phase 1 trial: plasma pharmacokinetics after first dose; parameters: species or system human; settings: human, in vivo, 12 mg/m2, t1/2
parameter: half-life (h)
One number for each entry, in h.

Output half-life of Cc1ccc(C(=O)N(CCCN)[C@@H](c2nc3cc(Cl)ccc3c(=O)n2Cc2ccccc2)C(C)C)cc1 [ispinesib, Ispinesib]
13

====

assay: Pediatric phase 1 trial: plasma pharmacokinetics after first dose; design: species or system human; settings: human, in vivo, iv, 5 mg/m2, t1/2
parameter: half-life (h)
Answers are plain numbers, in h.

Output half-life of Cc1ccc(C(=O)N(CCCN)[C@@H](c2nc3cc(Cl)ccc3c(=O)n2Cc2ccccc2)C(C)C)cc1 [ispinesib, Ispinesib]
44

====

assay: Pediatric phase 1 trial: plasma pharmacokinetics after first dose; design: species or system human; conditions: human, in vivo, iv, 5 mg/m2, Cmax
parameter: Cmax (ng/mL)
Give bare numbers, in ng/mL.

Output Cmax of Cc1ccc(C(=O)N(CCCN)[C@@H](c2nc3cc(Cl)ccc3c(=O)n2Cc2ccccc2)C(C)C)cc1 [ispinesib, Ispinesib]
86
